PROTOCOL SUMMARY: ATG_NF_kB_CIS: Attagene CIS-FACTORIAL HepG2 Assay for human Nuclear Factor Kappa B (NF-kB) (AID 2282991)
PROTOCOL CONDITIONS: HepG2 Attagene cis-factorial NF-kB reporter mRNA; actives raise or lower the signal
Activity calls are given as the source filed them. How the source made its calls: active means hit-call score of the fitted dose curve at least 0.9, where 1 is the maximum; inactive means score below 0.9.
// one of active, inactive, no free text

Here's what some known entries look like.
- COMPOUND: "NC(=O)c1c(Cl)cccc1Cl"
  QUALITATIVE LABEL: "inactive"
- COMPOUND: "CCCCCC1CCC(=O)O1 (configuration not stated)"
  QUALITATIVE LABEL: "inactive"

Which outcome did this test record for the compound "CC(C)C(=O)OCC=Cc1ccccc1" ?
inactive

// return assay outcome for "OCC=Cc1ccccc1"
inactive

What did the test return for N#CCCCC(C#N)CCC#N (configuration not stated) ?
inactive

###

SUBJECT OF TEST: rat Thyrotropin Releasing Hormone Receptor (TRH), Trhr (gene 25570)
PROTOCOL SUMMARY: NVS_GPCR_rTRH: NovaScreen (NVS) G Protein-Coupled Receptor Assay for rat Thyrotropin Releasing Hormone Receptor (TRH) (AID 2283329);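 further: hit means lower bound tracer signal versus DMSO baseline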
Records with an inconclusive call do not appear. Activity calls are given as the source filed them. Rule for the calls: active = hit-call score of the fitted dose curve at least 0.9, where 1 is the maximum; inconclusive = response in the unintended direction; inactive = score below 0.9.
VALUE TYPE: AC50

Worked examples follow.
- TEST SMILES: "CC(=O)c1ccc2ccccc2c1"
  AC50: "inactive"
- TEST SMILES: "CCCCCCCCCCCCS"
  AC50: "929 nM (active)"
- TEST SMILES: "O=C(c1ccc(OCCN2CCCCC2)cc1)c1c(-c2ccc(O)cc2)sc2cc(O)ccc12"
  AC50: "inactive"
- TEST SMILES: "CC(=O)N(C)C"
  AC50: "inactive"

API: the following record is the query input.
Query AC50 for "O=S(=O)(O)c1cc(S(=O)(=O)O)c2c(N=Nc3ccccc3)c(O)ccc2c1"
inactive

###

PROTOCOL SUMMARY: ATG_TGFb_CIS: Attagene CIS-FACTORIAL HepG2 Assay for human Transforming Growth Factor (TGF) (AID 2282967)
PROTOCOL CONDITIONS: HepG2 Attagene CIS TGFb reporter, mRNA transcription; actives raise or lower the signal
The source made the active and inactive calls. The calls were made as follows: active = hit-call score of the fitted dose curve at least 0.9, where 1 is the maximum; inactive = score below 0.9.
// classify into active, inactive

Would you please look over these solved cases?
- COMPOUND: "Cc1cc(O)c2c(c1)C(=O)c1cc(O)cc(O)c1C2=O"
  QUALITATIVE LABEL: "inactive"
- COMPOUND: "NC(N)=S"
  QUALITATIVE LABEL: "inactive"
- COMPOUND: "CC(=O)c1ccc(O)cc1"
  QUALITATIVE LABEL: "inactive"

How did this test come out for "CC1(C)CC(=O)CC(C)(C)N1" ?
inactive

Call for entry "O=C1CCC(=O)N1" :
inactive

###

PROTOCOL SUMMARY: BSK_BT_Bcell_Proliferation: Viability Assessment in the BioMAP Diversity Plus: BT Assay for B cell Proliferation (AID 2284227)
PROTOCOL CONDITIONS: primary human B cells with PBMC
The source made the active and inactive calls. How the source made its calls: active means hit-call score of the fitted dose curve at least 0.9, where 1 is the maximum; inactive means score below 0.9.
Response enum: t (active), f (inactive)

Worked examples, 8 compounds total:
- COMPOUND: "CCCCCCCCCCCCS"
  QUALITATIVE LABEL: "f"
- COMPOUND: "O=S1(=O)CC(Cl)(Cl)C(Cl)(Cl)C1"
  QUALITATIVE LABEL: "t"
- COMPOUND: "NC(=O)c1c(Cl)cccc1Cl"
  QUALITATIVE LABEL: "f"
- COMPOUND: "O=C1OC2(c3ccc(O)cc3Oc3cc(O)ccc32)c2ccccc21"
  QUALITATIVE LABEL: "f"
- COMPOUND: "C=C(F)C(=O)OC(C(F)(F)F)C(F)(F)F"
  QUALITATIVE LABEL: "f"
- COMPOUND: "O=S(=O)(O)C(F)(F)C(F)(F)OC(F)(F)C(F)(F)F"
  QUALITATIVE LABEL: "f"
- COMPOUND: "CC(=O)OC(C)(C)C1CC=C(C)CC1 (centres undefined)"
  QUALITATIVE LABEL: "f"
- COMPOUND: "CC(C)(C)c1cccc(O)c1"
  QUALITATIVE LABEL: "f"

Here's the next entry for you.
Which outcome did this test record for the compound "CCOC(=O)C=Cc1ccccc1" ?
f
